test system: ATS189; test: qHTS profiling for inhibitors of Plasmodium falciparum proliferation (AID 504749); further: nearly all actives have a fitted effect of over 60% in size; details: P. falciparum in erythrocytes, SYBR Green DNA, 72 h; series mostly up to 28.7 µM
Records with an inconclusive call do not appear. Activity calls are given as the source filed them. The call rests on the fitted dose curve; in most records, active means well fitted inhibition curve with a large enough effect; inconclusive means small, poorly fitted or top-dose-only effect; inactive means flat fitted curve, though single readings scatter.
Answer with one of the outcomes 1 for active, -1 for inactive

Recorded results for 4 compounds are shown here.
>>> print(df.to_string())
                                   compound  qualitative_label
0                          COC(F)(F)C(Cl)Cl                 -1
1  Nc1c(N=Nc2ccc(-c3ccc(N=Nc4cc(S(=O)(=O)O)c5ccccc5c4N)cc3)cc2)cc(S(=O)(=O)O)c2ccccc12                 -1
2  CCOC(=O)C1=CC2(CC)CCCN3CCc4c(n1c1ccccc41)C32 (stereo unspecified)                  1
3  O=C(COc1ccc(Cl)cc1)OCCNC12CC3CC(CC(C3)C1)C2                 -1

Problem: Identify the outcome logged in this assay for the compound shown: CCN(CC)CCOc1ccc(-c2nc3cc(Cl)ccc3s2)cc1
Solution: -1

Problem: Call for entry O=C1C(=O)c2ncccc2-c2cccnc21 :
Solution: 1

Problem: Recorded test outcome, item Nc1c(Br)cc(Br)cc1CNC1CCC(O)CC1 (stereo unspecified)
Solution: -1

Problem: Name the outcome recorded for CC(C)N=c1cc2n(-c3ccc(Cl)cc3)c3ccccc3nc-2cc1Nc1ccc(Cl)cc1 in the assay.
Solution: -1

====

system: P94_40; assay: qHTS profiling for inhibitors of Plasmodium falciparum proliferation (AID 504749); further: nearly all actives have a fitted effect of over 60% in size; conditions: P. falciparum in erythrocytes, SYBR Green DNA, 72 h; series mostly up to 28.7 µM
Results filed as inconclusive are left out. Activity calls are given as the source filed them. Calls come from the whole dose curve; as a rule, active = well fitted inhibition curve with a large enough effect; inconclusive = small, poorly fitted or top-dose-only effect; inactive = flat fitted curve, though single readings scatter.
I would appreciate it if you answered using one of these outcomes: Yes (active), No (inactive)

Worked cases, answers included:
molecule	qualitative.label
CCN(CC)Cc1cc(Nc2ccnc3cc(Cl)ccc23)ccc1O	Yes
CC1(C)C(C=C(Cl)Cl)C1C(=O)OCc1cccc(Oc2ccccc2)c1 (stereo not drawn)	No

Problem: Would you mind telling me which call this test gave C[C@H]1C[C@H]2[C@@H]3CCC4=CC(=O)C=C[C@]4(C)[C@@]3(F)[C@@H](O)C[C@]2(C)[C@@]1(O)C(=O)CO ?
Solution: No

Problem: What classification did O=C(COc1ccc(Cl)cc1)OCCNC12CC3CC(CC(C3)C1)C2 end up with in this test?
Solution: No

Problem: In this assay, the call recorded for O=C(O)c1cc(O)c2c(c1)[O][Bi][O]2 was what?
Solution: No

Problem: # fetch the recorded call for CCOC(C)=O here
Solution: No

Problem: GET /call?item= Cc1cn([C@H]2C[C@H](O)[C@@H](CO)O2)c(=O)[nH]c1=O returns the recorded outcome of this test.
Solution: No

Problem: Call for entry CC1=CCC(C(C)(C)O)CC1 (stereo not drawn) :
Solution: No

Problem: Recorded test call requested for CCCCCC(CC)COC(=O)CC(C(=O)OCC(CC)CCCC)S(=O)(=O)O (stereo not drawn)
Solution: No

Problem: Which outcome was assigned to Cc1ccccc1 in this test?
Solution: No

Problem: What call does the record list for CC(NNC(=O)c1ccccc1)c1ccccc1 (stereo not drawn) ?
Solution: No

Problem: # outcome recorded in this test, key = CCCCC(=O)O[C@]1(C(=O)CO)[C@H](C)C[C@H]2[C@@H]3CCC4=CC(=O)C=C[C@]4(C)[C@@]3(F)[C@@H](O)C[C@@]21C
Solution: No

Problem: Hi team, can someone confirm the assay call for CCCCCCCCCCCCCC[n+]1ccc(C)cc1 ?
Solution: Yes

Problem: What outcome does the record of this test show for C[C@@H]1CCC2[C@@H](C)[C@@H](O)O[C@@H]3O[C@@]4(C)CC[C@@H]1[C@@]23OO4 (stereo partly drawn) ?
Solution: Yes

====

system: P93_24; assay: qHTS profiling for inhibitors of Plasmodium falciparum proliferation (AID 504749); further: nearly all actives have a fitted effect of over 60% in size; conditions: P. falciparum in erythrocytes, SYBR Green DNA, 72 h; series mostly up to 28.7 µM
Records with an inconclusive call do not appear. Active and inactive are the calls of the source. Calls follow the shape of the dose curve; as a rule, active = well fitted inhibition curve with a large enough effect; inconclusive = small, poorly fitted or top-dose-only effect; inactive = flat fitted curve, though single readings scatter.
# valid calls are active, inactive; nothing else

As a guide, the following entries are already answered.
compound	qualitative.label
CCOC(=O)C1=C(C)NC(C)=C(C(=O)OCC)C1c1ccccc1C=CC(=O)OC(C)(C)C	active
O=S(=O)(O)c1ccc2c(N=Nc3ccc(S(=O)(=O)O)c4ccccc34)c(O)c(S(=O)(=O)O)cc2c1	inactive
CCCCCC(CC)COC(=O)CC(C(=O)OCC(CC)CCCC)S(=O)(=O)O (stereo not given)	inactive
CC(C)=O	inactive
C[C@H]1C[C@H]2[C@@H]3CCC4=CC(=O)C=C[C@]4(C)[C@@]3(F)[C@@H](O)C[C@]2(C)[C@@]1(O)C(=O)CO	inactive

Problem: // param item: Nc1ncnc2c1ncn2[C@@H]1O[C@H](COP(=O)(O)OP(=O)(O)OP(=O)(O)O)[C@@H](O)[C@H]1O ; yields the recorded call
Solution: inactive

Problem: State the result this test recorded for COC(=O)C1=C(C#N)NC(C)=C(C(=O)OC(C)C)C1c1cccc([N+](=O)[O-])c1 (stereo not given) .
Solution: active

Problem: Short answer needed: outcome of this test for O=C1CSC2(CCN(CCCN3c4ccccc4Sc4ccc(Cl)cc43)CC2)N1 ?
Solution: active

Problem: Field: outcome | Entry: COC(=O)CCC(=O)CN
Solution: inactive

Problem: // return assay outcome for CCC(=O)NCCC1CCc2ccc3c(c21)CCO3 (stereo not given)
Solution: inactive

Problem: Given CO[C@H]1C[C@@H]2CC[C@@H](C)[C@@](O)(O2)C(=O)C(=O)N2CCCC[C@H]2C(=O)O[C@H]([C@H](C)C[C@@H]2CC[C@@H](OCCO)[C@H](OC)C2)CC(=O)[C@H](C)/C=C(\C)[C@@H](O)[C@@H](OC)C(=O)[C@H](C)C[C@H](C)/C=C/C=C/C=C/1C , state the outcome it received in this test.
Solution: active

Problem: Tell me the assay call for NC(=O)c1ncn(C2OC(CO)C(O)C2O)n1 (stereo not given) please.
Solution: inactive

Problem: Write down the call the test reported for this compound. Item: Nc1c(N=Nc2ccc(-c3ccc(N=Nc4cc(S(=O)(=O)O)c5ccccc5c4N)cc3)cc2)cc(S(=O)(=O)O)c2ccccc12
Solution: inactive

Problem: Assay outcome for Cc1ccccc1 : what was it?
Solution: inactive

====

For each of the compounds below, state its max response.
test system: CRL-7250; experiment: Cytotoxic Profiling of Annotated Libraries Using Quantitative High-Throughput Screening (AID 1296008); settings: Five cell lines viability, CellTiter-Glo ATP luminescence, 48-72 h; hits give low values; further: on the % scale 0 is the no-effect control and ±100 the full control effect; nearly all actives have a fitted effect of over 60% in size
Inconclusive results are not listed.
Give bare numbers, in %.

Consider the following illustrative entries.
compound	unit.descriptor	max response
CC1CC(=O)C2=C(O1)OC1(C)CCC3C(C)(C)C=CC(=O)C3(C)C1C2 (stereo not drawn)	%	-3.54
C[C@@H]1O[C@@H](O[C@@H]2[C@@H](O)[C@@H](O)[C@H](O[C@@H]3[C@@H](O)[C@@H](O[C@]4(CO)O[C@H](CO)[C@@H](O)[C@@H]4OC(=O)/C=C/c4ccc(O)cc4)O[C@H](CO)[C@H]3OC(=O)/C=C/c3ccc(O)cc3)O[C@H]2C)[C@H](O)[C@H](O)[C@H]1O	%	-4.29
CC1(C)C(=O)C(C)(C)c2cc(C(=O)Nc3ccc(C(=O)O)cc3)ccc21	%	2.14

Hey, can you go through the list below and give me max response for every item?
1. O=C(CCO[C@@H]1O[C@H](CO)[C@@H](O)[C@H](O)[C@H]1O)c1ccc(O)cc1
2. CN1C(=O)c2ccccc2-n2c(nc3ccccc3c2=O)[C@@]12O[C@H]2c1ccccc1
3. COc1ccccc1[C@@H]1C2=C(CC(C)(C)CC2=O)Nc2n[nH]c(C(F)(F)F)c21

Solution:
3.35
-8.37
3.92

====

tested on: Tov-21-G; test: Primary qHTS to identify gynecologic anti-cancer compounds using libraries of approved drugs and bioactive compounds (AID 1345084); settings: Gynecologic cancer cell panel viability, ATPlite luminescence, 48 h; series mostly up to 57.5 µM; further: on the % scale 0 is the no-effect control and ±100 the full control effect; nearly all actives have a fitted effect of over 55% in size
Inconclusive results are not listed. Activity calls are given as the source filed them. The call rests on the fitted dose curve; in most records, active means well fitted cell-killing curve with a large enough effect; inconclusive means small, poorly fitted or top-dose-only effect, or effect the other way; inactive means flat fitted curve, though single readings scatter.
outcome.measure: activity change, negative = cytotoxicity

In the examples that follow, each entry is paired with its recorded activity change, negative = cytotoxicity.
molecule	test.target	activity change, negative = cytotoxicity
C[C@@H]1O[C@@H](O[C@H]2[C@H](OC(=O)C34CCC(C)(C)CC3C3=CCC5C6(C)CC(O)C(O[C@@H]7O[C@H](CO)[C@@H](O)[C@H](O)[C@H]7O)C(C)(C(=O)O)C6CCC5(C)C3(CO)CC4)O[C@H](C)[C@H](O)[C@@H]2O)[C@H](O)[C@H](O)[C@H]1O[C@@H]1OC[C@@H](O)[C@H](O)[C@H]1O (stereo partly specified)	Tov-21-G	2.58% [at 11.6 µM] (inactive)
O=C(O)CCc1cc2ccoc2cc1O[C@@H]1O[C@H](CO[C@@H]2OC[C@](O)(CO)[C@H]2O)[C@@H](O)[C@H](O)[C@H]1O	Tov-21-G	inactive
CC(CCC1C(C(=O)O)=CC(=O)CC1(C)C)O[C@@H]1O[C@H](CO)[C@@H](O)[C@H](O)[C@H]1O (stereo partly specified)	Tov-21-G	inactive
C/C=C/C=C/C(CC(=O)O)Nc1ccc(C=O)cc1 (stereo unspecified)	Tov-21-G	inactive
COC(=O)C1=CO[C@@H](O[C@@H]2O[C@H](CO)[C@@H](O)[C@H](O)[C@H]2O)[C@@H]2[C@@H](C)[C@@H](O)C[C@H]12	Tov-21-G	inactive

Problem: Please look at this molecule and report its activity change, negative = cytotoxicity: COc1c(C)c(OCC=C(C)C)cc2c1C(=O)NC2=O
Solution: inactive
